test: Plasma stability, rat plasma (HPLC-MS); assay type: in vitro ADME; details: 10 μM, 37° C., 120 min
recorded metric: % remaining at time point in minutes, 120 min (%)
Numeric only. Scale: %

Entry under test: C=C1CC[C@@]2(O)C3Cc4ccc(OC(=O)OCCCCCCCCCCCC)c5c4[C@@]2(CCN3CC2CC2)[C@H]1O5 . Its % remaining at time point in minutes, 120 min was 7.6

Input CCCCCCCCOC(=O)Oc1ccc2c3c1O[C@H]1C(=O)CC[C@@]4(O)C(C2)N(CC2CC2)CC[C@]314 . Output % remaining at time point in minutes, 120 min: 0

% remaining at time point in minutes, 120 min for CCCCCCCCCCCCCCC(=O)Oc1ccc2c3c1O[C@H]1C(=O)CC[C@@]4(O)C(C2)N(CC2CC2)CC[C@]314 is 20

###

assay: Plasma stability, rat plasma (HPLC-MS); type: in vitro ADME; conditions: 10 μM, 37° C., 15 min
Recorded % remaining at time point in minutes, 15 min by entry
Give just the number in %; leave the unit off.

C=C1CC[C@@]2(O)C3Cc4ccc(OCOC(=O)OCCCCCCCCCCCC)c5c4[C@@]2(CCN3CC2CC2)[C@H]1O5 [Compound 24]	32

# % remaining at time point in minutes, 15 min (compound: C=C1CC[C@@]2(O)C3Cc4ccc(OC(=O)CCCCCCC/C=C/CCCCCCCC)c5c4[C@@]2(CCN3CC2CC2)[C@H]1O5 [Compound 15] ) is 72

Entry CCCCCCCCOC(=O)Oc1ccc2c3c1O[C@H]1C(=O)CC[C@@]4(O)C(C2)N(CC2CC2)CC[C@]314 [Compound 23] — recorded % remaining at time point in minutes, 15 min = 0

The reported % remaining at time point in minutes, 15 min of the compound CCCCCCCCCCCCCCC(=O)Oc1ccc2c3c1O[C@H]1C(=O)CC[C@@]4(O)C(C2)N(CC2CC2)CC[C@]314 [Compound 58] was 37

For this compound ( C=C1CC[C@@]2(O)C3Cc4ccc(OC(=O)OCCCCCCCC)c5c4[C@@]2(CCN3CC2CC2)[C@H]1O5 [Compound 17] ), measured % remaining at time point in minutes, 15 min is 0

###

experiment: Polymorph screening of solid state drug substances; assay type: physicochemical; conditions: MTBE, dried solid
recorded metric: XRPD results (Dried)

C=C1CC[C@@]2(O)C3Cc4ccc(OC(=O)CCCCCCCCCCCCCCCCCCC)c5c4[C@@]2(CCN3CC2CC2)[C@H]1O5	Pattern A
C=C1CC[C@@]2(O)C3Cc4ccc(OC(=O)OCCCCCCCCCCCCCCCC)c5c4[C@@]2(CCN3CC2CC2)[C@H]1O5	Pattern A

###

Listed compounds paired with reported solubility thermodynamic
test: Equilibrium solubility in water (Table 10); settings: water, 40 °C, thermodynamic from solid
Reply with the number, then its unit.

C=C1CC[C@@]2(O)[C@H]3Cc4ccc(O)c5c4[C@@]2(CCN3CC2CC2)[C@H]1O5	25 µg/mL

Next item in the queue.
For record C=C1CC[C@@]2(O)C3Cc4ccc(OC(=O)CCCCCCCCCCCCCCC)c5c4[C@@]2(CCN3CC2CC2)[C@H]1O5 [Compound 56, reference compound] the listed solubility thermodynamic is 6.6 µg/mL

###

experiment: Polymorph screening of solid state drug substances; format: physicochemical; settings: MTBE, after stirring at 50 °C for 72 hours
recorded metric: Dry method and appearance

Previously resolved entries follow.
C=C1CC[C@@]2(O)C3Cc4ccc(OC(=O)NC(C)(C)C)c5c4[C@@]2(CCN3CC2CC2)[C@H]1O5 [Compound 40]	Evaporation/white powder
C=C1CC[C@@]2(O)C3Cc4ccc(OC(=O)OCCCCCCCCCCCCCC)c5c4[C@@]2(CCN3CC2CC2)[C@H]1O5 [Compound 31]	Evaporation/white powder
C=C1CC[C@@]2(O)C3Cc4ccc(OC(=O)CCCCCCCCCCCCCCCCCCCCC)c5c4[C@@]2(CCN3CC2CC2)[C@H]1O5 [Compound 14]	Evaporation/white powder
CCCCCCCCCCCCCCCC(=O)Oc1ccc2c3c1O[C@H]1C(=O)CC[C@@]4(O)C(C2)N(CC2CC2)CC[C@]314 [Compound 55]	Evaporation/white powder

// next item, Dry method and appearance requested
Looking up C=C1CC[C@@]2(O)C3Cc4ccc(OC(=O)OCCCCCCCCCCCCCCCC)c5c4[C@@]2(CCN3CC2CC2)[C@H]1O5 [Compound 19] , I see its Dry method and appearance listed as Evaporation/white powder
